These measurements were taken from ChEMBL document CHEMBL1127674.

assay: Half-life in mouse serum after oral administration of 100 mg/kg of dose; type: ADME, organism-based; parameters: dose 100 mg/kg, route oral
Outcome Measure: half-life (h)
Write the value in h as a bare number.

Per the record, OCC1CC(F)C(n2cnc3c(O)ncnc32)O1 (configuration not stated) has half-life of 4.28

Quick note, half-life for OCC1CC(F)C(n2cnc3cncnc32)O1 (configuration not stated) landed at 0.79

---

experiment: Half-life in mouse brain after oral administration of 100 mg/kg of dose; format: ADME, organism-based; set-up: dose 100 mg/kg, route oral
Outcome Measure: half-life (min)
Lab book: enter the figure in min, no units written.

Noted for OCC1CC(F)C(n2cnc3cncnc32)O1 (stereo unspecified) : its half-life reads 39

---

test system: Mus musculus; assay: Apparent clearance in mice after intravenous administration of 105.1 mg/kg of dose; type: ADME, organism-based; parameters: dose 105.1 mg/kg, route intravenous; settings: in vivo
Outcome Measure: CI

Consider OCC1CC(F)C(n2cnc3cncnc32)O1 (stereo unspecified) . Its measured CI is 29.3 mL/min/kg

---

system: Mus musculus; experiment: Apparent clearance in mice after oral administration of 100 mg/kg of dose; type: ADME, organism-based; set-up: dose 100 mg/kg, route oral; settings: in vivo
So I've got a bunch of molecules here, and I need their CI values.
Kindly provide the numeric value in mL/min/kg only, without the unit symbol.

For reference, reported CI for OCC1CC(F)C(n2cnc3c(O)ncnc32)O1 (configuration not stated) stands at 48

OCC1CC(F)C(n2cnc3cncnc32)O1 (configuration not stated) has a reported CI of 48.3

---

assay: Evaluated for the maximum serum concentration administered at 1 hour in mice; type: ADME, organism-based; details: mouse
Outcome Measure: Cmax (µM)
Give the value in µM but do not write µM after it.

# molecule OCC1CC(F)C(n2cnc3c(O)ncnc32)O1 (stereo unspecified) ; its Cmax = 48.1
